assay: LDH cytotoxic activity assay, HT29; format: cell-based; conditions: human, HT29 cells, HT29, 100 μg/mL
Below: a set of entries, each annotated with reported cytotoxicity at 24 h, 100 μg/mL.
measured_parameter: cytotoxicity at 24 h, 100 μg/mL

INSERT INTO measurements (chem_smiles, result) VALUES
  ('Cc1ccc(-c2cc(-c3cccnc3)nc(N[C@@H]3O[C@H](CO)[C@@H](O)[C@H](O)[C@H]3O)n2)cc1', '95.9%'),
  ('CC(=O)OC[C@H]1O[C@@H](Nc2nc(-c3ccncc3)cc(-c3cccc(C)c3)n2)[C@H](OC(C)=O)[C@@H](OC(C)=O)[C@@H]1OC(C)=O', '78.6%'),
  ('Cc1cccc(-c2cc(-c3ccccn3)nc(N[C@@H]3O[C@H](CO)[C@@H](O)[C@H](O)[C@H]3O)n2)c1', '74.9%'),
  ('CC(=O)OC[C@H]1O[C@@H](Nc2nc(-c3ccccn3)cc(-c3ccccc3C)n2)[C@H](OC(C)=O)[C@@H](OC(C)=O)[C@@H]1OC(C)=O', '95.2%'),
  ('CC(=O)OC[C@H]1O[C@@H](Nc2nc(-c3ccc(C)cc3)cc(-c3ccccn3)n2)[C@H](OC(C)=O)[C@@H](OC(C)=O)[C@@H]1OC(C)=O', '70.2%'),
  ('CC(=O)OC[C@H]1O[C@@H](Nc2nc(-c3ccncc3)cc(-c3ccccc3C)n2)[C@H](OC(C)=O)[C@@H](OC(C)=O)[C@@H]1OC(C)=O', '77.6%');

====

experiment: LDH cytotoxic activity assay, HT29; assay type: cell-based; details: human, HT29 cells, HT29, 75 μg/mL
Parameter cytotoxicity at 24 h, 75 μg/mL: see the listing below.
measured_parameter: cytotoxicity at 24 h, 75 μg/mL (%)

INSERT INTO assay_data (chem_smiles, numeric_value) VALUES
  ('Cc1ccccc1-c1cc(-c2ccncc2)nc(N[C@@H]2O[C@H](CO)[C@@H](O)[C@H](O)[C@H]2O)n1', 71.1),
  ('CC(=O)OC[C@H]1O[C@@H](Nc2nc(-c3cccnc3)cc(-c3ccccc3C)n2)[C@H](OC(C)=O)[C@@H](OC(C)=O)[C@@H]1OC(C)=O', 63.8),
  ('CC(=O)OC[C@H]1O[C@@H](Nc2nc(-c3ccc(C)cc3)cc(-c3cccnc3)n2)[C@H](OC(C)=O)[C@@H](OC(C)=O)[C@@H]1OC(C)=O', 51);

====

test: LDH cytotoxic activity assay, HeLa; assay type: cell-based; conditions: human, HeLa cells, 50 μg/mL
Use cytotoxicity at 24 h, 50 μg/mL to assign classes; range list: A: < 30%; B: ≥ 30% and < 40%; C: ≥ 40%

INSERT INTO measurements (compound, cat) VALUES
  ('CC(=O)OC[C@H]1O[C@@H](Nc2nc(-c3cccc(C)c3)cc(-c3ccccn3)n2)[C@H](OC(C)=O)[C@@H](OC(C)=O)[C@@H]1OC(C)=O [Compound 13]', 'A'),
  ('Cc1ccc(-c2cc(-c3ccccn3)nc(N[C@@H]3O[C@H](CO)[C@@H](O)[C@H](O)[C@H]3O)n2)cc1 [Compound 7]', 'A'),
  ('Cc1ccc(-c2cc(-c3ccncc3)nc(N[C@@H]3O[C@H](CO)[C@@H](O)[C@H](O)[C@H]3O)n2)cc1 [Compound 9]', 'B'),
  ('CC(=O)OC[C@H]1O[C@@H](Nc2nc(-c3ccncc3)cc(-c3cccc(C)c3)n2)[C@H](OC(C)=O)[C@@H](OC(C)=O)[C@@H]1OC(C)=O [Compound 15]', 'B'),
  ('Cc1ccccc1-c1cc(-c2ccccn2)nc(N[C@@H]2O[C@H](CO)[C@@H](O)[C@H](O)[C@H]2O)n1 [Compound 1]', 'C'),
  ('Cc1cccc(-c2cc(-c3cccnc3)nc(N[C@@H]3O[C@H](CO)[C@@H](O)[C@H](O)[C@H]3O)n2)c1 [Compound 5]', 'B'),
  ('CC(=O)OC[C@H]1O[C@@H](Nc2nc(-c3ccc(C)cc3)cc(-c3cccnc3)n2)[C@H](OC(C)=O)[C@@H](OC(C)=O)[C@@H]1OC(C)=O [Compound 17]', 'A'),
  ('Cc1ccccc1-c1cc(-c2cccnc2)nc(N[C@@H]2O[C@H](CO)[C@@H](O)[C@H](O)[C@H]2O)n1 [Compound 2]', 'C');

Ref: paper PMC10387993
